sequences and their reported switch fluorescence ratio
Test system: ATP;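 also: ATP exposure 15 min at 22 °C before imaging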
Experiment notes: switch fluorescence ratio, 500 uM ATP over buffer (Cy3 cluster intensity, sum of 5 cycles each) (fold (ratio)); higher = stronger signal-on switching upon ATP binding; sequences stand for … in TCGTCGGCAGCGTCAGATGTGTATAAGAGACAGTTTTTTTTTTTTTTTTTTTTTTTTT…TC
Test context: aptamer strand: ATP DNA aptamer (quencher-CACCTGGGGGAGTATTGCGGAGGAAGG + anchor), 100 nM annealed; ATP concentration: 500 uM
Quantity kind: switch fluorescence ratio

>>> recorded_measurement("GTAATTGGAG")
0.992
>>> recorded_measurement("AGGGGTGAGT")
1.02
>>> recorded_measurement("TTAAAGGTGG")
0.984
>>> recorded_measurement("ATGTCGGGCA")
0.986
>>> recorded_measurement("TGGGGTATTT")
0.997
>>> recorded_measurement("AGACTGCATT")
1.06
>>> recorded_measurement("TCCAGGTGCG")
2.96
>>> recorded_measurement("TAAATAATAT")
1.01
>>> recorded_measurement("GAGTTTGGTG")
0.94
>>> recorded_measurement("TTGCACCGTT")
1.01
>>> recorded_measurement("CACTTGCAGA")
0.999
>>> recorded_measurement("TAACAATTCC")
1.26
>>> recorded_measurement("TGATTAGTTG")
0.993
>>> recorded_measurement("AAATACCCAG")
1.04
>>> recorded_measurement("TGGGGCAGGG")
1.44
>>> recorded_measurement("TTTATAAGAT")
1.01
>>> recorded_measurement("AAAGATGTCG")
1.07
>>> recorded_measurement("CGCGGCAGGA")
1.02
>>> recorded_measurement("CATTTGTGGA")
1
>>> recorded_measurement("ATGTTATGG")
1.01
>>> recorded_measurement("TACATATGGT")
1.03

----------
sequences and their reported switch fluorescence ratio
Tested on: ATP;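 also: ATP exposure 15 min at 22 °C before imaging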
Experiment notes: switch fluorescence ratio, 500 uM ATP over buffer (Cy3 cluster intensity, sum of 5 cycles each) (fold (ratio)); higher = stronger signal-on switching upon ATP binding; sequences stand for … in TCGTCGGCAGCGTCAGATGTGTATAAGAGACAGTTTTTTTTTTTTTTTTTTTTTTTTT…TC
Test context: aptamer strand: ATP DNA aptamer (quencher-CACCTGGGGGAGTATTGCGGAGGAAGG + anchor), 100 nM annealed; ATP concentration: 500 uM
Quantity kind: switch fluorescence ratio

>>> recorded_measurement("TGGGGCGC")
1.01
>>> recorded_measurement("GTTACAGAGA")
1
>>> recorded_measurement("CGCTACAATG")
1.05
>>> recorded_measurement("AGCGATTATA")
0.991
>>> recorded_measurement("GGGAAATGGT")
1.01
>>> recorded_measurement("ATTTGGGTGA")
1.03
>>> recorded_measurement("GAGAGGGGCT")
1.01
>>> recorded_measurement("CATGAGAGGT")
1
>>> recorded_measurement("TCGGTTTAGC")
1.02
>>> recorded_measurement("ATTGAAAAGG")
0.96
>>> recorded_measurement("TCGATGCTAG")
1.03

----------
Tested on: ATP;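 also: ATP exposure 15 min at 22 °C before imaging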
Experiment notes: switch fluorescence ratio, 500 uM ATP over buffer (Cy3 cluster intensity, sum of 5 cycles each) (fold (ratio)); higher = stronger signal-on switching upon ATP binding; sequences stand for … in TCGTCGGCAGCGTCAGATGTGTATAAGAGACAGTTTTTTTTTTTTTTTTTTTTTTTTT…TC
Test context: aptamer strand: ATP DNA aptamer (quencher-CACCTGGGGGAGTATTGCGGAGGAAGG + anchor), 100 nM annealed; ATP concentration: 500 uM
sequences and their reported switch fluorescence ratio
Quantity kind: switch fluorescence ratio

>>> recorded_measurement("ATGAGCACAA")
1.09
>>> recorded_measurement("TTAATCTAGC")
0.991
>>> recorded_measurement("GCAATTTCGC")
1.42
>>> recorded_measurement("TCATTTAAGA")
0.954
>>> recorded_measurement("GATGAGTGGT")
0.979
>>> recorded_measurement("TATCACTTTA")
1.09
>>> recorded_measurement("AGTAAAGTGT")
0.997
>>> recorded_measurement("AGGGTTACGG")
1.02
>>> recorded_measurement("TCAAAGGTGT")
1.22
>>> recorded_measurement("TTTTGGGAAC")
1.02
>>> recorded_measurement("GTTGGTGCGG")
0.999
>>> recorded_measurement("TGAAGGGGGA")
0.995
>>> recorded_measurement("TGGCATAGTT")
0.995
>>> recorded_measurement("GGAACACACG")
1.32
>>> recorded_measurement("GCTTACGGGG")
1.04
>>> recorded_measurement("TAATTTAAGG")
0.993
>>> recorded_measurement("AAAACGAGTC")
1.07
>>> recorded_measurement("TCCAAATTTT")
1.02
>>> recorded_measurement("TGGGATCGCT")
1.04
>>> recorded_measurement("AAAGACATGG")
0.989
>>> recorded_measurement("ATTTAGCCGC")
1.02
>>> recorded_measurement("AACAGGAAGC")
1.01
>>> recorded_measurement("CGGGGAAGTC")
1.02
>>> recorded_measurement("CGTAATTTCA")
1.02
>>> recorded_measurement("ATTAGTGGGG")
0.978
>>> recorded_measurement("GAGAGAAGTG")
0.945
>>> recorded_measurement("TAACGGAGGT")
1.02
>>> recorded_measurement("CGTGGTTCAG")
0.996
>>> recorded_measurement("ACTACCCCAA")
1.94
>>> recorded_measurement("TTTTTTTAGC")
1.03
>>> recorded_measurement("GGTTTTTGAG")
0.956
>>> recorded_measurement("TTGCAGGGGA")
1.3
>>> recorded_measurement("ACTGGGCCGG")
1.04
>>> recorded_measurement("GAGGCGGACT")
1.02
>>> recorded_measurement("GGAGTTGGGG")
0.99
>>> recorded_measurement("ATAGTGGGGA")
1.04
>>> recorded_measurement("TGCTGGCCAC")
1.01
>>> recorded_measurement("GGGAAGCCTT")
1.03
>>> recorded_measurement("ATTTGGGTGG")
0.987
>>> recorded_measurement("TTGTTTGCAA")
1.52
>>> recorded_measurement("GGCTCATTGA")
0.984
>>> recorded_measurement("ACATTCGCGC")
1.15
>>> recorded_measurement("ATATAGTTTG")
1

----------
Test system: ATP;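 also: ATP exposure 15 min at 22 °C before imaging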
Experiment notes: switch fluorescence ratio, 500 uM ATP over buffer (Cy3 cluster intensity, sum of 5 cycles each) (fold (ratio)); higher = stronger signal-on switching upon ATP binding; sequences stand for … in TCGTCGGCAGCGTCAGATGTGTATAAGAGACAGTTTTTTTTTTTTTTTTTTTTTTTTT…TC
Test context: aptamer strand: ATP DNA aptamer (quencher-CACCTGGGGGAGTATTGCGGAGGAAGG + anchor), 100 nM annealed; ATP concentration: 500 uM
sequences and their reported switch fluorescence ratio
Quantity kind: switch fluorescence ratio

>>> recorded_measurement("CGGAGTGGTA")
1.09
>>> recorded_measurement("GGAAGGGGCC")
1.03
>>> recorded_measurement("TTGGGTGGTT")
0.981
>>> recorded_measurement("CGGGTGTTTT")
1.05
>>> recorded_measurement("TTACTTTGGC")
1

----------
Test system: ATP;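 also: ATP exposure 15 min at 22 °C before imaging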
Experiment notes: switch fluorescence ratio, 500 uM ATP over buffer (Cy3 cluster intensity, sum of 5 cycles each) (fold (ratio)); higher = stronger signal-on switching upon ATP binding; sequences stand for … in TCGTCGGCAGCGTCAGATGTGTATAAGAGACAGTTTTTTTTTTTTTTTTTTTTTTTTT…TC
Test context: aptamer strand: ATP DNA aptamer (quencher-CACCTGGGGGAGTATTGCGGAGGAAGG + anchor), 100 nM annealed; ATP concentration: 500 uM
sequences and their reported switch fluorescence ratio
Quantity kind: switch fluorescence ratio

>>> recorded_measurement("TGACTGGACG")
1
>>> recorded_measurement("AAGGGGTCGT")
1
>>> recorded_measurement("TATATTCGCT")
0.988
>>> recorded_measurement("AATGGGCGAG")
1.08
>>> recorded_measurement("TGAAATTTAA")
1
>>> recorded_measurement("AAAAGGGGAA")
1.02

----------
Tested on: ATP;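 also: ATP exposure 15 min at 22 °C before imaging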
Experiment notes: switch fluorescence ratio, 500 uM ATP over buffer (Cy3 cluster intensity, sum of 5 cycles each) (fold (ratio)); higher = stronger signal-on switching upon ATP binding; sequences stand for … in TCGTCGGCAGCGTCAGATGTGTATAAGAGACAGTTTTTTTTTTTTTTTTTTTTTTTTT…TC
Test context: aptamer strand: ATP DNA aptamer (quencher-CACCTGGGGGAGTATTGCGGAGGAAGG + anchor), 100 nM annealed; ATP concentration: 500 uM
sequences and their reported switch fluorescence ratio
Quantity kind: switch fluorescence ratio

>>> recorded_measurement("TATGGCTGTG")
1.02
>>> recorded_measurement("CAATATGTTT")
0.991
>>> recorded_measurement("TGAGGGAGGT")
0.985
>>> recorded_measurement("GAGTTTATTA")
0.994
>>> recorded_measurement("TCGTGGGGTA")
0.976
>>> recorded_measurement("GAGGGATCAG")
0.994
>>> recorded_measurement("GGTGGTTGGG")
1.01
>>> recorded_measurement("CGAGGGGGTA")
1.02
>>> recorded_measurement("GGTATGCGGT")
0.974
>>> recorded_measurement("TGGGTGTAGC")
0.986
>>> recorded_measurement("ATTAGGTCTA")
1
>>> recorded_measurement("GCGGTGTTGG")
0.989
>>> recorded_measurement("TTTCACCTTT")
1.02
>>> recorded_measurement("CTGGCGGGGA")
1.02
>>> recorded_measurement("AGCATGTGGC")
0.991
>>> recorded_measurement("TTTGGAGAAA")
0.989
>>> recorded_measurement("ATAGGGGAGT")
0.993
>>> recorded_measurement("GGTTAAGTGC")
1.01
>>> recorded_measurement("ATTAACTAAA")
1.02
>>> recorded_measurement("TAAAATTTTT")
1
>>> recorded_measurement("TTTCGGGGGG")
1.02
>>> recorded_measurement("AGGGTCTGAG")
1.01
>>> recorded_measurement("GGTGGGTTTT")
0.99
>>> recorded_measurement("AAGTATAATG")
1.02
>>> recorded_measurement("TGCAGTATGG")
0.997
>>> recorded_measurement("TTTACTTAGT")
1.02
>>> recorded_measurement("TGTGCCCCTT")
0.991
>>> recorded_measurement("TGAATATTAA")
0.985
>>> recorded_measurement("GAAATGGTAT")
1
>>> recorded_measurement("GTTTACGTGG")
1.01
>>> recorded_measurement("TTGGGAAGCG")
1
>>> recorded_measurement("TATACGGAAG")
1.02
>>> recorded_measurement("TAGATGTCAG")
0.986
>>> recorded_measurement("GGTCATAGAC")
0.991
>>> recorded_measurement("CAGGCTATTG")
0.988
>>> recorded_measurement("TGGGTGGTCA")
0.987
>>> recorded_measurement("AATCCTAGTT")
1.01
>>> recorded_measurement("GGGAAGATTC")
1.01
>>> recorded_measurement("GATTGAGAGC")
0.993
>>> recorded_measurement("GGGTTTAAAA")
0.985
>>> recorded_measurement("TATTTGTTAG")
0.997
>>> recorded_measurement("GGGAAAGAAT")
0.978
>>> recorded_measurement("GGGTAAAGTC")
0.994
>>> recorded_measurement("CCTGGGAAGA")
1.02
>>> recorded_measurement("TTGGGTTTTG")
0.994
>>> recorded_measurement("TGATCAGGGA")
1.02
>>> recorded_measurement("TGTCTTTATT")
0.988
>>> recorded_measurement("TCAGAAGGCG")
0.981
>>> recorded_measurement("CGCTGAGAGG")
1
>>> recorded_measurement("AATTTGTTAG")
0.985
>>> recorded_measurement("CTTATTAGGT")
0.985
>>> recorded_measurement("GGTATTGGGC")
0.988
>>> recorded_measurement("ATTATGTTTA")
1
>>> recorded_measurement("GGTTATGGCC")
1.01
>>> recorded_measurement("AATGGAGATG")
1
>>> recorded_measurement("TTTCTTATTC")
0.983
>>> recorded_measurement("CGGTATGTG")
1.01
>>> recorded_measurement("AAGGATGGGG")
0.98
>>> recorded_measurement("GAGGCCTTGG")
0.983
>>> recorded_measurement("TAAGTATTGG")
0.977
>>> recorded_measurement("GTGAGTGCCT")
1.01
